target: KIX domain of CBP/p300 (mouse CBP 586–672) (Mus musculus); format: binding
Sequence (P45481 586-672): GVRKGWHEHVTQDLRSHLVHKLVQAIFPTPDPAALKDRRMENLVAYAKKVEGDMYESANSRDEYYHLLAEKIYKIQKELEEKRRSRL
Listed below: Kd values for each entry.
# output: number + unit

[[record]]
substance = "Ac-EDHLDEAIHVLRSHAVGTAGDMHTLLP-NH2 [E2A AD2–1/2]"
reportedresult = "21 µM"


Now let's try a different one.
Using the record for Ac-EDHLDEAIHVLRSHY-NH2 [E2A AD2–1 (C-terminal tyrosine)] , report its Kd.
21 µM
